Exercise: state measured cell viability for each of the compounds provided.
System: SEM cells
Assay: cell viability relative to DMSO control; higher = less cytotoxic
Settings: RPMI 5 mM glucose + 10% FBS; 48 h; 46.1 µM
State the answer as a number, implicitly in %.

Query: Using the record for `NC12CC3CC(CC(C3)C1)C2` , report its cell viability.
Result: 104

Query: Using the record for `OC1=C(C=CC=C1)C2=CC=C(C=C2)C3=CSC4=C3C(=C(/C#N)C(=O)N4)/O` , report its cell viability.
Result: 90.9

Query: Using the record for `CO[C@@H]1[C@H](N(C)C(=O)c2ccccc2)C[C@H]2O[C@]1(C)n1c3ccccc3c3c4c(c5c6ccccc6n2c5c31)C(=O)NC4` , report its cell viability.
Result: 4.63

Query: Using the record for `Nc1ccc([S+](=O)([O-])Nc2ccccn2)cc1` , report its cell viability.
Result: 111

Query: Using the record for `O=C(c1ccc(F)cc1)C1CCN(CCn2c(=O)[nH]c3ccccc3c2=O)CC1` , report its cell viability.
Result: 116

Query: Using the record for `COC(=O)N[C@H](C(=O)N[C@@H](Cc1ccccc1)[C@@H](O)CN(Cc1ccc(-c2ccccn2)cc1)NC(=O)[C@@H](NC(=O)OC)C(C)(C)C)C(C)(C)C` , report its cell viability.
Result: 96.7

Query: Using the record for `CNC(=O)c1c(F)cccc1Nc1nc(Nc2cc3c(cc2OC)CCN3C(=O)CN(C)C)nc2[nH]ccc12` , report its cell viability.
Result: 0.384

Query: Using the record for `O=C(NC1CC1)c1cccc(-c2ccc3c(NC(=O)C4CC4)n[nH]c3c2)c1` , report its cell viability.
Result: 11.1

Query: Using the record for `C[C@@H]1CN(CC(=O)N2CC(C)(C)c3ncc(Cc4ccc(F)cc4)cc32)[C@@H](CN2CCOC[C@H]2C)CN1` , report its cell viability.
Result: 54.9

Query: Using the record for COc1ccc2cc(-c3[nH]c(-c4ccc([S+](C)[O-])cc4)nc3-c3ccncc3)ccc2c1 (stereo unspecified) , report its cell viability.
Result: 71.9

Query: Using the record for `COc1ccc2cccc(CCNC(C)=O)c2c1` , report its cell viability.
Result: 95

Query: Using the record for `NC/1=N/C(=O)N(/C=C1)[C@H]2CC[C@@H](CO)O2` , report its cell viability.
Result: 80.1

Query: Using the record for `CCc1cc(/C(C)=N/OCc2ccc(C3CCCCC3)c(C(F)(F)F)c2)ccc1CN1CC(C(=O)O)C1` , report its cell viability.
Result: 70.2

Query: Using the record for `CC(C)[C@H](CO)Nc1nc(Nc2ccc(C(=O)O)c(Cl)c2)c2ncn(C(C)C)c2n1` , report its cell viability.
Result: 45

Query: Using the record for `CCOC(=O)c1ncn2c1CN(C)C(=O)c1cc(F)ccc1-2` , report its cell viability.
Result: 46.8

Query: Using the record for `Cc1cc(SCc2sc(-c3ccc(C(F)(F)F)c(F)c3)nc2C)ccc1OCC(=O)O` , report its cell viability.
Result: 103

Query: Using the record for CCOc1ccccc1OCCNC(C)Cc1ccc(OC)c([S+](N)(=O)[O-])c1 (stereo unspecified) , report its cell viability.
Result: 105

Query: Using the record for `CN(C)c1nc(N(C)C)nc(N(C)C)n1` , report its cell viability.
Result: 93.4

Query: Using the record for C[Se]CCC(N)C(=O)O (stereo unspecified) , report its cell viability.
Result: 98.1

Query: Using the record for Cc1ccccc1C(C(=O)NC1CCCCC1)N(C(=O)CNc1ccc(C#N)cc1)c1cccc(F)c1 (stereo unspecified) , report its cell viability.
Result: 106

Query: Using the record for `O=C1c2cccc(O)c2C(=O)c2c(O)cc(CO)cc21` , report its cell viability.
Result: 103

Query: Using the record for O=C1[O][Pt]2([NH]C3CCCCC3[NH]2)[O]C1=O (stereo unspecified) , report its cell viability.
Result: 2.68

Query: Using the record for `CC(C)(C)C1=NC2=C([NH]1)C3=CC=C(F)C=C3C4=C2\C=C/NC4=O` , report its cell viability.
Result: 32.3

Query: Using the record for `C[C@@]12OC(=O)[C@@]1(NC(=O)[C@@H]2CCCl)[C@@H](O)[C@H]\3CCC\C=C3` , report its cell viability.
Result: 2.01

Query: Using the record for `CCCn1c(=O)c2[nH]c(-c3cnn(Cc4cccc(C(F)(F)F)c4)c3)nc2n(CC)c1=O` , report its cell viability.
Result: 90.5

Query: Using the record for `CCCn1c(=O)c2[nH]c(C34CC5CC3C[C@@H](C5)C4)nc2n(CCC)c1=O` , report its cell viability.
Result: 84.4

Every entry's value here was drawn from the supplement of paper PMC11451515.
